These entries and their values trace back to ChEMBL document CHEMBL1126486.

The molecules below have reported Ki for Neurotensin receptor type 1 (Rattus norvegicus, UniProt P20789).
Where a SMILES comes first, the peptide text is derived from it. [ ]: non-standard residue; d: D form. The star is where a group is joined. Orn = NCCC[C@H](N)C(=O)O; Boc = CC(C)(C)OC(=O)*
Number in nM, nothing else.

Take a look at these entries with their results.
1) CC[C@H](C)[C@H](NC(=O)[C@H](Cc1ccc(O)cc1)NC(=O)[C@@H]1CCCN1C(=O)[C@H](CCCCN)NC(=O)OC(C)(C)C)C(=O)N[C@@H](CC(C)C)C(=O)O (Boc-KPYIL-OH); 63
2) CC[C@H](C)[C@H](NC(=O)[C@H](Cc1ccc(O)cc1)NC(=O)[C@@H]1CCCN1C(=O)[C@H](CCCN)NC(=O)OC(C)(C)C)C(=O)N[C@@H](CC(C)C)C(=O)O (Boc-[Orn]PYIL-OH); 82

Now examine the next entry.
Ask: Report measured Ki on Neurotensin receptor type 1 (Rattus norvegicus, UniProt P20789); entry: CC[C@H](C)[C@H](NNCC(=O)[C@H](Cc1ccc(O)cc1)NC(=O)[C@@H]1CCCN1C(=O)[C@H](CCCCN)NC(=O)C12C[C@H]3C[C@@H](C1)C[C@@H](C2)C3)C(=O)N[C@@H](CC(C)C)C(=O)O
Sequence (P20789 whole entry): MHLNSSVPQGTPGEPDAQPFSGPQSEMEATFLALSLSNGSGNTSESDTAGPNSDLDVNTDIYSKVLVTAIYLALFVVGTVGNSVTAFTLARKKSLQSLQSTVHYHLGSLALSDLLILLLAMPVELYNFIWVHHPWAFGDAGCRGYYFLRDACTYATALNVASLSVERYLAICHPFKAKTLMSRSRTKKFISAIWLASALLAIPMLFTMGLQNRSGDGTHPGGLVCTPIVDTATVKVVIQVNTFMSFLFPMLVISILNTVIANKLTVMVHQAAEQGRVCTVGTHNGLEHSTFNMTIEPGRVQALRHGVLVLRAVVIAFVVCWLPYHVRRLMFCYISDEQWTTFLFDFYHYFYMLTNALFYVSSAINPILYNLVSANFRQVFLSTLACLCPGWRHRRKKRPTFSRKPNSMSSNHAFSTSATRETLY
Reply: 5960
